experiment: in vitro; conditions: dog
Each item that follows carries a reported CC50.
Number in µM, nothing else.

Known CC50 results, listed for orientation:
molecule	units	CC50
CC1CCCC2(C1)SCC(=O)N2NC(=O)c1ccc(C(C)(C)C)cc1 (stereo not drawn)	µM	11
CCCC1CCC2(CC1)SC(C)C(=O)N2NC(=O)c1ccc(C(C)(C)C)cc1 (stereo not drawn)	µM	14
CC1CCC2(CC1)SC(C)C(=O)N2NC(=O)c1ccc(C(C)(C)C)cc1 (stereo not drawn)	µM	39
CC1CCCC2(C1)SC(C)C(=O)N2NC(=O)c1ccc(C(C)(C)C)cc1 (stereo not drawn)	µM	78
CC1SC2(CCCCC2)N(NC(=O)c2ccc(C(C)(C)C)cc2)C1=O (stereo not drawn)	µM	92

Shift focus to the following entry.
Enquiry: Quick one: give measured CC50 for CCC1CCC2(CC1)SC(C)C(=O)N2NC(=O)c1ccc(C(C)(C)C)cc1 (stereo not drawn)
Return: 13
